Molecular target: hT2R54 (Homo sapiens, UniProt P59534)
Construct: expressed in transfected cells; it overexpresses a promiscuous G protein
Sequence (P59534 whole entry): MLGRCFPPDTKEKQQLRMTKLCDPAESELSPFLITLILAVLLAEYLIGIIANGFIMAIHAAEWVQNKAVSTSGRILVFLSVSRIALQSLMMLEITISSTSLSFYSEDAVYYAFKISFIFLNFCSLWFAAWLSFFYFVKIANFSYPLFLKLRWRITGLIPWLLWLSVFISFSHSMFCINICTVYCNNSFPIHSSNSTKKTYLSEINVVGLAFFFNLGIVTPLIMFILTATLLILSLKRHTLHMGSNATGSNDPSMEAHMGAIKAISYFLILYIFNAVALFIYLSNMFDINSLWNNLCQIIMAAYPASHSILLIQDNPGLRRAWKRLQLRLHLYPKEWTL
Test: Cell-based assay for measuring hT2R54 inhibition (FLIPR calcium, Fluo4AM, acetaminophen as bitter agonist)
Details: Table 8; read-out: hT2R54 IC50
Measurement Type: IC50 (nM)
# number only, unit nM dropped from output

Prompt: # return IC50 for CC(=O)c1cc2c(cc1NC(=O)CC1CCCN(C(=O)c3cccs3)C1)OCO2 (centres unmarked) , test system: hT2R54 (Homo sapiens, UniProt P59534)
Completion: 8

Prompt: # return IC50 for CC(=O)c1cc2c(cc1NC(=O)CC1CCCN(C(=O)c3nc(C)c[nH]3)C1)OCO2 (centres unmarked) , test system: hT2R54 (Homo sapiens, UniProt P59534)
Completion: 159

Prompt: # return IC50 for CC(=O)c1cc2c(cc1NC(=O)CC1CCN(C(=O)C(C)(C)C)C1)OCO2 (centres unmarked) , test system: hT2R54 (Homo sapiens, UniProt P59534)
Completion: 290
